Data provenance is patent US4591551A.

experimental-target: phenylethanolamine-N-methyl transferase (Bos taurus, UniProt P10938)
Construct: PNMT was partially purified from bovine adrenal medulla; from tissue; host or cells: bovine adrenal medulla
Sequence (P10938 1-283): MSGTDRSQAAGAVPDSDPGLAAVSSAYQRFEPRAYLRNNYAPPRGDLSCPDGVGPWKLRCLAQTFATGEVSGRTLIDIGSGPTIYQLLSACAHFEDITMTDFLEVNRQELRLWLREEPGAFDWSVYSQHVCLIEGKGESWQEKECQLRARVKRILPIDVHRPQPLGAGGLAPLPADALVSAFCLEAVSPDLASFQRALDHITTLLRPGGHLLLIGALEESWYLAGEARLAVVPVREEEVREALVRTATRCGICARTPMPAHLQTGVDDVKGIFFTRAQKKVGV
experiment: Substrate specificity: cross reactivities of catecholamines and congeners in the radioenzymatic assay for plasma normetanephrine
Assay type: biochemical, bovine
recorded-conditions: 500 pg of amine in assay for plasma normetanephrine
measurement-kind: Percentage Interference (%)
Supply the numeric figure in %, leaving out any unit text.

The examples below pair each entry with its known result.
NCCc1ccc(O)cc1 [Tyramine, tyramine]: 0
CNC[C@H](O)c1ccc(O)c(O)c1 [Epinephrine, epinephrine]: 0
CNCC(O)c1ccc(O)c(OC)c1 (stereo not shown) [Metanephrine, metanephrine]: 0.7
NCC(O)c1ccc(O)cc1 (stereo not shown) [Octopamine, octopamine]: 4.9
CNCC(O)c1ccc(O)cc1 (stereo not shown) [Synephrine, synephrine]: 1.5

State its Percentage Interference: NC[C@H](O)c1ccc(O)c(O)c1 [Norepinephrine, norepinephrine]
0.1

Quote Percentage Interference reported for NCCc1ccc(O)c(O)c1 [Dopamine, dopamine] please.
0

* * *

experimental-target: phenylethanolamine-N-methyl transferase (Bos taurus, UniProt P10938)
Construct: PNMT was partially purified from bovine adrenal medulla; from tissue; host or cells: bovine adrenal medulla
Sequence (P10938 1-283): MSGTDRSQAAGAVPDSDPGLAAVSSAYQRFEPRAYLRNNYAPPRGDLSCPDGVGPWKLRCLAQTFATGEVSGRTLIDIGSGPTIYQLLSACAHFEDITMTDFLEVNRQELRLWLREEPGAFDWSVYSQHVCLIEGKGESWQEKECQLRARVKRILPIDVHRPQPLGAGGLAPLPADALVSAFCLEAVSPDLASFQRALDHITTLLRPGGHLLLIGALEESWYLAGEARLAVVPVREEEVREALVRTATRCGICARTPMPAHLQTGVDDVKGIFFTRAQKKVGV
experiment: Substrate specificity: cross reactivities of catecholamines and congeners in the radioenzymatic assay for plasma normetanephrine
Type: biochemical, bovine
recorded-conditions: 500 pg of amine plus 250 pg of normetanephrine
Listed below: Counts per Minute, Normetanephrine Standard values for each entry.
Entry rule: numbers only, all in Counts per Minute.

# annotated cases, reported Counts per Minute, Normetanephrine Standard shown
NCCc1ccc(O)c(O)c1: 6130
CNCC(O)c1ccc(O)cc1 (stereo not shown) [Synephrine, synephrine]: 6160
NCCc1ccc(O)cc1: 6090
NC[C@H](O)c1ccc(O)c(O)c1 [Norepinephrine, norepinephrine]: 6020
CNCC(O)c1ccc(O)c(OC)c1 (stereo not shown): 6363
NCC(O)c1ccc(O)cc1 (stereo not shown): 7261

// next entry
Specify measured Counts per Minute, Normetanephrine Standard for CNC[C@H](O)c1ccc(O)c(O)c1 [Epinephrine, epinephrine] .
6124

* * *

experimental-target: phenylethanolamine-N-methyl transferase (Bos taurus, UniProt P10938)
Construct: PNMT was partially purified from bovine adrenal medulla; from tissue; host or cells: bovine adrenal medulla
experiment: Substrate specificity: cross reactivities of catecholamines and congeners in the radioenzymatic assay for plasma normetanephrine
Assay type: biochemical, bovine
recorded-conditions: 500 pg of amine added, without normetanephrine internal standard, metanephrine band after TLC
Threshold 200 Counts per Minute: Counts per Minute, Sample strictly smaller gives 1, otherwise -1.

Is 200 Counts per Minute strictly greater than the compound's reported Counts per Minute, Sample? compound: CNC[C@H](O)c1ccc(O)c(O)c1 [Epinephrine, epinephrine]
1

# TODO verify Counts per Minute, Sample < 200 Counts per Minute strictly for this compound: NC[C@H](O)c1ccc(O)c(O)c1 [Norepinephrine, norepinephrine]
1

* * *

experimental-target: phenylethanolamine-N-methyl transferase (Bos taurus)
Construct: PNMT was partially purified from bovine adrenal medulla; from tissue; host or cells: bovine adrenal medulla
experiment: Substrate specificity: cross reactivities of catecholamines and congeners in the radioenzymatic assay for plasma normetanephrine
Assay type: biochemical, bovine
recorded-conditions: apparent normetanephrine from 500 pg of amine, calculated using 250 pg in the formula
Normetanephrine reference
Give the quantity in pg, number only.

Consider the compound CNCC(O)c1ccc(O)c(OC)c1 (stereo not shown) and give its recorded Normetanephrine.
3.8

Give Normetanephrine for CNC[C@H](O)c1ccc(O)c(O)c1 [Epinephrine, epinephrine]
0

For the compound NCC(O)c1ccc(O)cc1 (stereo not shown) , report Normetanephrine.
24.5

Return Normetanephrine (reported value) for this compound: "NCCc1ccc(O)c(O)c1"
0

Let me know recorded Normetanephrine for CNCC(O)c1ccc(O)cc1 (stereo not shown) [Synephrine, synephrine] , thanks.
7.5

Retrieve Normetanephrine measured for "NCCc1ccc(O)cc1" and print it.
0

Annotate the compound NC[C@H](O)c1ccc(O)c(O)c1 [Norepinephrine, norepinephrine] with its measured Normetanephrine.
0.6

* * *

The reader will find reported Counts per Minute, Sample values listed item by item below.
experimental-target: phenylethanolamine-N-methyl transferase (Bos taurus)
Construct: PNMT was partially purified from bovine adrenal medulla; from tissue; host or cells: bovine adrenal medulla
experiment: Substrate specificity: cross reactivities of catecholamines and congeners in the radioenzymatic assay for plasma normetanephrine
Type: biochemical, bovine
recorded-conditions: 500 pg of amine added, without normetanephrine internal standard, metanephrine band after TLC
Procedure: PNMT was partially purified from bovine adrenal medulla according to the method of Henry et al, supra. […] Radioactive products were extracted into 3 ml of toluene isoamyl-alcohol mixture (3:2) by agitation on a vortex mixer. […] The plasma normetanephrine concentration was calculated from the radioactivity according to the formula given above. […]
The reply should be a number in Counts per Minute, with the unit left off.

NCCc1ccc(O)cc1: 81
CNCC(O)c1ccc(O)cc1 (centres unmarked) [Synephrine, synephrine]: 262
NCC(O)c1ccc(O)cc1 (centres unmarked): 726
CNCC(O)c1ccc(O)c(OC)c1 (centres unmarked): 180

// next item, Counts per Minute, Sample requested
System phenylethanolamine-N-methyl transferase (Bos taurus). Read-out Counts per Minute, Sample. Item "NCCc1ccc(O)c(O)c1" . Report value.
80
